The measured values listed here are drawn from PubChem BioAssay AID1159580.

assay: chemical genetic growth profiling, strain panel (AID 1159580);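 note: tested at 20 µM; growth read once vehicle control cultures reached saturation at 30 °C; 1 = growth at the plate median or of vehicle wells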; details: S. cerevisiae deletion strains, growth OD, locus YBL061C, strain skt5, stronger effect = lower value
Hit rate of the full screen: of about 5,500 compounds, about 2,000 (36%) were called active. Inconclusive results (about 18%) are left out. Some of the results follow.
property.name: normalized growth
One number for each entry.

CN(C)CCCN1c2ccccc2Sc2ccc(Cl)cc21 :: 0.0759
CN1CCN(C(=O)OC2c3nccnc3C(=O)N2c2ccc(Cl)cn2)CC1 (stereo not given) :: 0.99
Cc1scc2c1N(C(=O)CN1CCN(C)CC1)c1ccccc1NC2=O :: 0.963
O=P1(N(CCCl)CCCl)NCCCO1 (stereo not given) :: 1.01
CC(C)CCCC(C)C1CCC2C3C[C@@H](O)[C@@]4(O)C[C@@H](O)CC[C@]4(C)C3CC[C@]12C (stereo not given in full) :: 0.986

# return normalized growth for each item in the list
1. CC(C)CCCC(C)C1CCC2C3CC(=O)[C@H]4C[C@@H](O)CC[C@]4(C)C3CC[C@]12C (stereo not given in full)
2. CN(C)CCCN1c2ccccc2CCc2ccc(Cl)cc21
3. CC(C)CCCC(C)[C@H]1CCC2C3CC=C4CC(=O)CC[C@]4(C)C3CC[C@@]21C (stereo not given in full)
4. CC(C)CCCC(C)C1CCC2C3=CC[C@H]4C[C@@H](O)CC[C@]4(C)C3CC[C@@]21C (stereo not given in full)
5. CC12CCC(=O)C=C1CCC1C2[C@@H](O)CC2(C)C1CC[C@]2(O)C(=O)COP(=O)(O)O (stereo not given in full)

Result:
1
1.01
1
0.991
0.998

---

assay: chemical genetic growth profiling, strain panel (AID 1159580); conditions: S. cerevisiae deletion strains, growth OD, locus YMR307W, strain GAS1, stronger effect = lower value
Hit rate of the full screen: of about 5,500 compounds, about 2,000 (36%) were called active. Roughly 18% stayed inconclusive and do not appear here. The list shows a part of the results.
Label key: rule met means normalized growth under 1; rule not met means normalized growth of 1 or more.

Answered examples (6):
CC(=O)OCC(=O)[C@@]1(O)[C@H](C)CC2C3CCC4=CC(=O)C=C[C@]4(C)[C@@]3(F)[C@@H](O)C[C@@]21C (stereo partly drawn) :: rule met
CC(=O)O[C@@H]1C=C[C@@]2(C)C(C[C@@H](OC(C)=O)[C@@]3(C)C4=CC(=O)O[C@@H](c5ccoc5)[C@]4(C)CCC23)C1(C)C (stereo partly drawn) :: rule not met
CC(=O)Oc1ccc(O)cc1 :: rule met
CCC(C)C(=O)OC1[C@@H]2CC3=C4CC(=O)O[C@@H](c5ccoc5)[C@]4(C)CCC3[C@@](C)(C2=O)[C@@H](CC(=O)OC)C1(C)C (stereo partly drawn) :: rule not met
CCCSc1ccc2nc(NC(=O)OC)[nH]c2c1 :: rule not met
COC(=O)/C(=C1\OC(=O)C(c2ccccc2)=C1O)c1ccccc1 :: rule not met

Ask: Decide: normalized growth of C=C(C)C1(O)OC(=O)C=C1OC (stereo not drawn) strictly below 1?
Result: rule met

Ask: Decide: normalized growth of O=C(NCO)c1cccnc1 strictly below 1?
Result: rule not met

Ask: Decide: normalized growth of CC(Cc1cccc(C(F)(F)F)c1)NCCOC(=O)c1ccccc1 (stereo not drawn) strictly below 1?
Result: rule met

Ask: Decide: normalized growth of Nc1ccc(S(=O)(=O)NC(=O)c2ccccc2)cc1 strictly below 1?
Result: rule met

Ask: Decide: normalized growth of Cn1ncc(C(=O)O/N=C(/N)c2cc(C(F)(F)F)cc(C(F)(F)F)c2)c1-n1cccc1 strictly below 1?
Result: rule not met

---

For each record, write down the corresponding normalized growth.
experiment: chemical genetic growth profiling, strain panel (AID 1159580); conditions: S. cerevisiae deletion strains, growth OD, locus YOR290C, strain snf2, stronger effect = lower value
Screen size: about 5,500 compounds; about 2,000 (36%) were called active. Roughly 18% stayed inconclusive and do not appear here. This is one part of the list.
Answers are plain numbers.

CC1(C)CC2C1CC[C@]1(CBr)CCC3C(CC(=O)O)C(=O)O[C@@]32C1 (stereo partly specified) :: 0.99
CCCOc1ccc2nc(NC(=O)OC)[nH]c2c1 :: 1.01
Cc1cc(=O)oc2cc(O)c(O)cc12 :: 0.937
CC12CCC3C(CC3(C)C)C(C)(CCC1=O)O2 (stereo unspecified) :: 0.975

# return normalized growth for each item in the list
1. CC(C)CCCC(C)[C@H]1CCC2C3C(=O)C=C4C[C@@H](O)CC[C@]4(C)C3CC[C@@]21C (stereo partly specified)
2. CC1=CCCC2C1(C)CCC(C)C2(C)CC/C(C)=C/C[n+]1cn(C)c2c(N)ncnc21 (stereo unspecified)
3. CCN(CC)CCOCCOC(=O)C1(c2ccccc2)CCCC1
4. CC(=O)O[C@H]1CC[C@@]2(C)C(=CC(=O)C3C4CCC(C(C)CCCC(C)C)[C@@]4(C)CCC32)C1 (stereo partly specified)
5. CCN(CC)CCOC(=O)C1(C2CCCCC2)CCCCC1
6. CCCSc1ccc2nc(NC(=O)OC)[nH]c2c1

Result:
1: 1.07; 2: 0.844; 3: 0.992; 4: 0.974; 5: 0.939; 6: 0.98

Ask: Can you look up the measured normalized growth of CNCCCC12CCC(c3ccccc31)c1ccccc12 for me?
Result: 0.94

---

For each record, write down the corresponding normalized growth.
test: chemical genetic growth profiling, strain panel (AID 1159580);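 note: tested at 20 µM; growth read once vehicle control cultures reached saturation at 30 °C; 1 = growth at the plate median or of vehicle wells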; conditions: S. cerevisiae deletion strains, growth OD, locus YNL071W, strain lat1, stronger effect = lower value
In all, about 5,500 compounds went through this assay and about 2,000 (36%) were called active. About 18% were inconclusive and are not listed. The list shows a part of the results.
Give bare numbers.

Below: 3 compounds and their reported normalized growth.
OC[C@H]1O[C@@H](O[C@@H]2[C@@H](CO)O[C@](O)(CO)[C@H]2O)[C@H](O)[C@@H](O)[C@H]1O :: 1.01
Cc1cc(=O)oc2cc(O)cc(O)c12 :: 0.972
CO[C@H]1CC(O[C@@H]2/C(C)=C/C[C@@H]3C[C@@H](C[C@]4(CC[C@H](C)[C@@H](C5CCCCC5)O4)O3)OC(=O)[C@@H]3C=C(C)/C(=N\O)[C@H]4OC/C(=C\C=C\[C@@H]2C)[C@]43O)O[C@@H](C)C1O (stereo partly drawn) :: 1.02

# return normalized growth for each item in the list
1. CC(N=C(NC#N)Nc1ccncc1)C(C)(C)C (stereo not drawn)
2. Cc1cc(=O)oc2cc(O)c(O)cc12
3. CC(=O)Nc1ccc(S(=O)(=O)Nc2onc(C)c2C)cc1

Result:
[0.988, 0.988, 0.975]

# return normalized growth for each item in the list
1. CC(=O)O[C@H]1CC[C@@]2(C)C(C[C@@H](OC(C)=O)[C@@]3(C)C4=CC(=O)O[C@@H](c5ccoc5)[C@]4(C)CCC23)C1(C)C (stereo partly drawn)
2. OC[C@H]1O[C@@H](O[C@H]2[C@H](O)[C@@H](O)[C@@H](O)O[C@@H]2CO)[C@H](O)[C@@H](O)[C@@H]1O

Result:
1: 1.01; 2: 1.02

---

assay: chemical genetic growth profiling, strain panel (AID 1159580);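 note: tested at 20 µM; growth read once vehicle control cultures reached saturation at 30 °C; 1 = growth at the plate median or of vehicle wells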; conditions: S. cerevisiae deletion strains, growth OD, locus YFR028C, strain CDC14, stronger effect = lower value
In all, about 5,500 compounds went through this assay and about 2,000 (36%) were called active. Inconclusive results (about 18%) are left out. The list shows a part of the results.
For each record, write down the corresponding normalized growth.
Numbers only.

Below: 4 compounds and their reported normalized growth.
Cc1onc(-c2c(F)cccc2Cl)c1/C(N)=N\OC(=O)c1ccc(C(C)(C)C)cc1 :: 0.984
Cc1ccc(-c2csc(-c3ccncc3)n2)cc1 :: 0.89
O=C(Nc1cccc(Cl)c1)O/N=C1\CCCc2occc21 :: 0.935
Cc1ccc(-n2cccc2)c(NS(=O)(=O)c2ccc(-c3ccno3)s2)c1 :: 0.94

# return normalized growth for each item in the list
1. CC(C)(C)c1cc(C(=O)Nc2ccc3c(c2)OCO3)n(Cc2ccc(F)cc2)n1
2. CSc1sc(C(=O)Sc2ccccc2)cc1S(=O)(=O)C(C)C
3. Cc1ccc2nc(-c3ccc4c(c3)OCCO4)cn2c1

Result:
1: 0.978; 2: 0.992; 3: 0.976

---

experiment: chemical genetic growth profiling, strain panel (AID 1159580);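 note: tested at 20 µM; growth read once vehicle control cultures reached saturation at 30 °C; 1 = growth at the plate median or of vehicle wells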; conditions: S. cerevisiae deletion strains, growth OD, locus YLL041C, strain sdh2, stronger effect = lower value
The whole screen tested about 5,500 compounds, of which about 2,000 (36%) were called active. Not shown: some 18% with an inconclusive outcome. The list shows a part of the results.
Label key: True means normalized growth under 1; False means normalized growth of 1 or more.

COC(=O)/C(=C1\OC(=O)C(c2ccccc2)=C1O)c1ccccc1 :: True

Ask: Decide: normalized growth of CC(=O)O[C@H]1CCC2(C)C3=C(CCC2C1(C)C)[C@@]1(C)CC[C@@H](C(C)CCC=C(C)C)[C@]1(C)CC3 (stereo partly drawn) strictly below 1?
Result: False

Ask: Decide: normalized growth of CN(C)[C@@H]1C(=O)C(C(N)=O)=C(O)[C@@]2(O)C(=O)C3=C(O)c4c(O)ccc(Cl)c4[C@@](C)(O)[C@H]3C[C@@H]12 strictly below 1?
Result: True

Ask: Decide: normalized growth of CC(C)=CCCC(C)[C@@H]1CC[C@]2(C)C3=C(CC[C@@]12C)C1(C)CC[C@H](O)C(C)(C)C1CC3 (stereo partly drawn) strictly below 1?
Result: False

Ask: Decide: normalized growth of O=C(CC(=O)c1ccccc1)c1ccccc1 strictly below 1?
Result: True

Ask: Decide: normalized growth of CC(=O)c1ccc(O)c(CC=C(C)C)c1 strictly below 1?
Result: True
